The sequences listed here are annotated with their PBM E-score.
Biological target: Yer064c (UniProt P40041)
Sequence: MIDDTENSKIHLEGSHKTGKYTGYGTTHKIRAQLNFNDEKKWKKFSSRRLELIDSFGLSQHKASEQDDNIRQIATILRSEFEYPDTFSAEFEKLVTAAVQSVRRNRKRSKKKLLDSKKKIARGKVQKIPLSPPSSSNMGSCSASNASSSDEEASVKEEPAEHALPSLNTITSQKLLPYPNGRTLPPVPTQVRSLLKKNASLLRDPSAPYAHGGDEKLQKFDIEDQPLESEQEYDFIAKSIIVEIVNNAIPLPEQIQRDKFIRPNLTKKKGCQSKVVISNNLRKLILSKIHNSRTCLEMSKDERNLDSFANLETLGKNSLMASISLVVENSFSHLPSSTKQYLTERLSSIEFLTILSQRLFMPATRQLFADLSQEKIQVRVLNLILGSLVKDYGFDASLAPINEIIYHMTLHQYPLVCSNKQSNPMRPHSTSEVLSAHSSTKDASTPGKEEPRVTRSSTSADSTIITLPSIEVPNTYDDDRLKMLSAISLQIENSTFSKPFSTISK
Test: PBM E-score (8-mer binding enrichment) (E-score (-0.5 to 0.5)); higher = stronger / more preferred TF binding
Conditions: protein concentration: 200 nM; construct: GST-full length
Over roughly 33,000 sequences, “E-score (-0.5 to 0.5)” has its median near -0.036; the highest 2% begin near 0.37. The sample as a whole holds a higher share of the highest values than the screen did.
Please give the numeric answer without any surrounding text.

{"RESIDUE STRING": "CATCATCG", "SYSTEM UNDER TEST": "Yer064c (UniProt P40041)", "QUANTITATIVE READOUT": 0.125}
{"RESIDUE STRING": "ATCGATAG", "SYSTEM UNDER TEST": "Yer064c (UniProt P40041)", "QUANTITATIVE READOUT": 0.0388}
{"RESIDUE STRING": "CAAGCCAG", "SYSTEM UNDER TEST": "Yer064c (UniProt P40041)", "QUANTITATIVE READOUT": -0.139}
{"RESIDUE STRING": "GAAGACGC", "SYSTEM UNDER TEST": "Yer064c (UniProt P40041)", "QUANTITATIVE READOUT": -0.193}
{"RESIDUE STRING": "AACTGACA", "SYSTEM UNDER TEST": "Yer064c (UniProt P40041)", "QUANTITATIVE READOUT": -0.287}

Any idea what PBM E-score was measured for ATATCATA ? 0.00064

Dear colleague, I am looking for the recorded PBM E-score of the following sequence: AATCATCC 0.468

Return reported PBM E-score; argument: AAGACTGT 0.254

What value of PBM E-score has been reported for the following sequence? ACGCCACT -0.186

Would you kindly share the measured PBM E-score for GTACCGAC ? -0.057

Entry under review: ACTCAGCG . Reported PBM E-score? 0.269

Can you look up the measured PBM E-score of AGGCATTG for me? -0.171

I have this sequence here, ACCCAGAT , and I need its recorded PBM E-score. -0.0932
